- System under test: human σ1 receptor (Homo sapiens)
- Test name: biochemical
- Assay type: binding
- Condition details: read-out: μ and σ1 dual binding
pKi: −log10 of the molar value. Counter-ions that a name gives are not always drawn.
What pKi was measured for each of the following?

Which pKi reading was recorded for the compound CC(C)=C1OC2(CCN(CCc3scnc3C)CC2)CN(c2ccccc2F)C1=O [Example 141, hydrochloride] ?
> 6.30

Which pKi reading was recorded for the compound `O=C1CO[C@@]2(CCN(Cc3ccccc3)C2)CN1c1ccccc1` ?
< 6.30

Which pKi reading was recorded for the compound O=C1COC2(CCN(CCc3ccccc3)CC2)CN1Cc1ccccn1 [Example 86, hydrochloride] ?
> 7.00

Which pKi reading was recorded for the compound COCCCN1CC2(CCN(CCc3ccccc3)CC2)OC2(CC2)C1=O [Example 180, hydrochloride] ?
> 6.30

Which pKi reading was recorded for the compound COc1cccc(N2CC3(CCN(CCc4ccccc4)CC3)OC(C)C2=O)c1 (centres unmarked) [Example 15, hydrochloride] ?
> 6.30

Which pKi reading was recorded for the compound CC1OC2(CCN(CCc3ccc(Cl)nc3)CC2)CN(c2ccccc2)C1=O (centres unmarked) ?
< 6.30

Which pKi reading was recorded for the compound O=C1N(CCO)CC2(CCN(CCc3ccccc3)CC2)OC12CC2 [Example 310, hydrochloride] ?
< 6.30

Which pKi reading was recorded for the compound CC1OC2(CCN(CC(=O)N3CCOCC3)CC2)CN(Cc2ccc(C(F)(F)F)cn2)C1=O (centres unmarked) [Example 124, hydrochloride] ?
< 6.30

* * *

- System under test: human σ1 receptor (Homo sapiens, UniProt Q99720)
- Sequence (Q99720 whole entry): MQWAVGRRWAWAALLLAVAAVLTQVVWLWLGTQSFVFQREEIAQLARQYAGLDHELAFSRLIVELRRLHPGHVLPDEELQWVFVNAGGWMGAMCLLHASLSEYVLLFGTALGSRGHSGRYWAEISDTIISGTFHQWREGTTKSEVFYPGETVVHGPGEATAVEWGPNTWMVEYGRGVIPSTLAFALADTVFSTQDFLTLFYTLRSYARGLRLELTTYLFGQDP
- Test name: biochemical
- Format: binding
- Condition details: read-out: μ and σ1 dual binding
pKi: −log10 of the molar value. Counter-ions that a name gives are not always drawn.
Property label: pKi

Which pKi reading was recorded for the compound CC1OC2(CCN(CCc3cccnc3[N+](=O)[O-])CC2)CN(c2cnccc2C(F)(F)F)C1=O (centres unmarked) [Example 43] ?
< 6.30

Which pKi reading was recorded for the compound CC(=O)Nc1ccnc(CCN2CCC3(CC2)CN(c2ccccc2)C(=O)C(C)O3)c1 (centres unmarked) [Example 253, hydrochloride] ?
< 6.30

Which pKi reading was recorded for the compound C=C1OC2(CCN(CCc3ccccc3)CC2)CN(c2ccccc2)C1=O [Example 21] ?
< 6.30

Which pKi reading was recorded for the compound O=C1COC2(CCN(CCc3ccccc3)CC2)CN1c1cccc(F)c1 [Example 191] ?
> 6.30

Which pKi reading was recorded for the compound CC1CN(Cc2ccccn2)CC2(CCN(CCc3ccccc3)CC2)O1 (centres unmarked) [Example 330, hydrochloride] ?
> 7.00

Which pKi reading was recorded for the compound O=C1COC2(CCN(CCc3ccccc3)CC2)CN1Cc1ncc[nH]1 [Example 284, hydrochloride] ?
< 6.30

Which pKi reading was recorded for the compound Nc1cccc(CCN2CCC3(CC2)CN(Cc2ccc(C(F)(F)F)cn2)C(=O)CO3)c1 [Example 235] ?
< 6.30

Which pKi reading was recorded for the compound COC[C@@H]1OC2(CCN(CCc3ccccc3)CC2)CN(c2ccccc2)C1=O [Example 12a] ?
> 6.30

Which pKi reading was recorded for the compound COC(=O)CCN1CC2(CCN(CCc3ccccc3)CC2)OC2(CC2)C1=O [Example 186] ?
< 6.30

Which pKi reading was recorded for the compound CC1OC2(CCN(CCc3ccc(C#N)cn3)CC2)CN(c2ccccc2)C1=O (centres unmarked) [Example 36, hydrochloride] ?
< 6.30

Which pKi reading was recorded for the compound Fc1cccnc1CCN1CCC2(CC1)CN(Cc1ccccc1)CC1(CC1)O2 [Example 344] ?
> 7.00

Which pKi reading was recorded for the compound CC1OC2(CCN(CCn3nccc3NC(=O)OC(C)(C)C)CC2)CN(c2ccccc2)C1=O (centres unmarked) [Example 116] ?
< 6.30

Which pKi reading was recorded for the compound c1ccc(CN2CCOC3(CCN(CCc4ccccn4)CC3)C2)cc1 [Example 138, hydrochloride] ?
> 7.00

Which pKi reading was recorded for the compound CC1OC2(CCN(CCc3csc(N)n3)CC2)CN(c2cnccc2C(F)(F)F)C1=O (centres unmarked) [Example 309] ?
< 6.30

Which pKi reading was recorded for the compound CC1OC2(CCN(CC(=O)N3CCOCC3)CC2)CN(c2ccccc2)C1=O (centres unmarked) [Example 78, hydrochloride] ?
< 6.30

Which pKi reading was recorded for the compound CC1OC2(CCN(CCC(=O)Nc3ccccc3)CC2)CN(c2ccccc2)C1=O (centres unmarked) [Example 144, hydrochloride] ?
> 6.30

Which pKi reading was recorded for the compound CC1OC2(CCN(CCc3ccccc3)CC2)CN(c2cccc([N+](=O)[O-])c2)C1=O (centres unmarked) [Example 199] ?
< 6.30

* * *

- System under test: human σ1 receptor (Homo sapiens, UniProt Q99720)
- Test name: biochemical
- Type: binding
- Condition details: read-out: μ and σ1 dual binding
Where a name gives a salt, the structure may show the parent alone.
Property label: Ki

Which Ki reading was recorded for the compound O=C1COC2(CCN(CC(O)c3ccccc3)CC2)CN1Cc1ccc(C(F)(F)F)cn1 (stereo not shown) ?
< 500 nM

Which Ki reading was recorded for the compound CC1OC2(CCN(CCc3cccnc3N)CC2)CN(c2cnccc2C(F)(F)F)C1=O (stereo not shown) [Example 240, hydrochloride] ?
> 500 nM

Which Ki reading was recorded for the compound CC1OC2(CCN(CCc3ccccn3)CC2)CN(c2ccccc2)C1=O (stereo not shown) ?
< 100 nM

Which Ki reading was recorded for the compound `O=C1N(c2ccccc2F)CC2(CCN(CCc3ccccc3)CC2)OC12CC2` ?
< 100 nM

Which Ki reading was recorded for the compound CC1OC2(CCN(CCc3ccccc3)CC2)CN(Cc2ccc(F)cc2)C1=O (stereo not shown) [Example 158, hydrochloride] ?
< 100 nM

Which Ki reading was recorded for the compound CC1OC2(CCN(CCc3ccc(S(N)(=O)=O)cc3)CC2)CN(c2ccccc2)C1=O (stereo not shown) ?
> 500 nM

Which Ki reading was recorded for the compound CCOC(=O)c1cccc(CCN2CCC3(CC2)CN(c2ccccc2F)C(=O)C(C)O3)c1 (stereo not shown) ?
> 500 nM

Which Ki reading was recorded for the compound COC(=O)CCN1CCC2(CC1)CN(c1ccccc1)C(=O)C(C)O2 (stereo not shown) ?
> 500 nM

Which Ki reading was recorded for the compound CC1CN(Cc2nccn2C)CC2(CCN(CCc3ccccc3)CC2)O1 (stereo not shown) [Example 327, dihydrochloride] ?
< 500 nM

Which Ki reading was recorded for the compound CC1OC2(CCN(CCc3ccccc3)CC2)CN(c2ccc(C(F)(F)F)nc2)C1=O (stereo not shown) [Example 212, hydrochloride] ?
> 500 nM

* * *

- System under test: human σ1 receptor (Homo sapiens, UniProt Q99720)
- Test name: biochemical
- Format: binding
- Condition details: read-out: μ and σ1 dual binding
Structures can show the parent of a compound that is named as a salt.
Property label: Ki

Which Ki reading was recorded for the compound Oc1cccc(CCN2CCC3(CC2)CN(c2ccccc2)CCO3)c1 [Example 322] ?
< 500 nM

Which Ki reading was recorded for the compound O=C1N(Cc2ccc(C(F)(F)F)cn2)CC2(CCN(CCc3ccccc3)CC2)OC12CC2 [Example 187, dihydrochloride] ?
< 100 nM

Which Ki reading was recorded for the compound O=C1COC2(CCN(CCc3ccccc3)CC2)CN1c1ccc(F)cc1 [Example 190] ?
< 500 nM

Which Ki reading was recorded for the compound Nc1cccc(CCN2CCC3(CC2)CN(Cc2ccccc2)CCO3)c1 [Example 338] ?
> 500 nM

Which Ki reading was recorded for the compound CC1OC2(CCN(CCc3cccc(F)c3)CC2)CN(c2ccccc2)C1=O (centres unmarked) [Example 54, hydrochloride] ?
< 100 nM

Which Ki reading was recorded for the compound Nc1cccc(CN2CC3(CCN(CCc4ccccc4)CC3)OCC2=O)n1 [Example 104] ?
> 500 nM

Which Ki reading was recorded for the compound CC1OC2(CCN(CCn3ccc(N)n3)CC2)CN(c2ccccc2)C1=O (centres unmarked) [Example 237, hydrochloride] ?
> 500 nM

Which Ki reading was recorded for the compound CC(C)(C)OC(=O)Nc1nc(CCN2CCC3(CC2)CN(Cc2ccc(C(F)(F)F)cn2)C(=O)CO3)cs1 [Example 106] ?
> 500 nM

Which Ki reading was recorded for the compound CC1OC2(CCN(CCc3ncccc3F)CC2)CN(Cc2ccc(F)cn2)C1=O (centres unmarked) [Example 47, hydrochloride] ?
< 500 nM

Which Ki reading was recorded for the compound CC1OC2(CCN(CC(=O)N3CCCCC3)CC2)CN(c2ccccc2)C1=O (centres unmarked) [Example 129] ?
> 500 nM

Which Ki reading was recorded for the compound c1ccc(CCN2CCC3(CC2)CN(Cc2ccccn2)CCO3)cc1 [Example 336, dihydrochloride] ?
< 100 nM

Which Ki reading was recorded for the compound NC(=O)Nc1cccc(CCN2CCC3(CC2)CN(Cc2ccc(C(F)(F)F)cn2)C(=O)C2(CC2)O3)c1 [Example 263] ?
< 500 nM

Which Ki reading was recorded for the compound CC1OC2(CCN(CCc3ccc(C(F)(F)F)nc3)CC2)CN(c2ccccc2F)C1=O (centres unmarked) [Example 91, dihydrochloride] ?
< 500 nM

Which Ki reading was recorded for the compound CC1OC2(CCN(CCc3ccccc3)CC2)CN(CC(C)(C)O)C1=O (centres unmarked) [Example 183] ?
> 500 nM

Which Ki reading was recorded for the compound CC1OC2(CCN(CCc3ccccc3)CC2)CN(Cc2cncs2)C1=O (centres unmarked) [Example 161, hydrochloride] ?
< 500 nM

Which Ki reading was recorded for the compound COc1ccccc1CCN1CCC2(CC1)CN(Cc1ccccc1)CCO2 [Example 87, dihydrochloride] ?
> 500 nM

Which Ki reading was recorded for the compound O=C1COC2(CCN(CCc3ccccc3)CC2)CN1c1ccccc1 [Example 5] ?
< 500 nM

Recorded values, source patent US10703765B2.
